system: radish (Raphanus sativus) sprouts; assay: Phytotoxicity test on radish sprouts; format: in vivo; conditions: 250 mg/L, radish, 5 days; UTC 3.09 g
readout type: Mass of 25 Sprouts

The examples below pair each entry with its known result.
>>> print(df.to_string())
                                   compound  observed_value
0                           O=C(O)c1ccccc1O     1.14 bc A g
1  C[N+](C)(C)CCCl [[CC][Cl], Chlormequat chloride, reference compound]      2.08 fgh A
2  C[N+](C)(C)CCCl.O=C([O-])c1cccc(Cl)c1O [[CC][3-ClSal]]     1.96 ef C g
3                       O=C(O)c1cc(Cl)ccc1O     1.24 cd A g
4  C[N+](C)(C)CCCl.O=C([O-])c1cccnc1 [[CC][Nic]]     2.28 hi A g
5                       O=C(O)c1ccc(Cl)cc1O     0.98 ab A g

IN: State its Mass of 25 Sprouts: O=C(O)c1cccnc1
OUT: 2.63 j AB g
